molecular target: LAT1 (Homo sapiens, UniProt Q01650); assay: LAT1 function: competitive uptake of L-dopa in SK-MEL-2 cells; assay type: cell-based; details: SK-MEL-2; L-dopa 0.1 mM, 10 min; competitor (BCH, L-tyrosine, sesamol 1 mM; L-leucine, L-alanine 2 mM; melphalan 0.05 mM)
Sequence (Q01650 whole entry): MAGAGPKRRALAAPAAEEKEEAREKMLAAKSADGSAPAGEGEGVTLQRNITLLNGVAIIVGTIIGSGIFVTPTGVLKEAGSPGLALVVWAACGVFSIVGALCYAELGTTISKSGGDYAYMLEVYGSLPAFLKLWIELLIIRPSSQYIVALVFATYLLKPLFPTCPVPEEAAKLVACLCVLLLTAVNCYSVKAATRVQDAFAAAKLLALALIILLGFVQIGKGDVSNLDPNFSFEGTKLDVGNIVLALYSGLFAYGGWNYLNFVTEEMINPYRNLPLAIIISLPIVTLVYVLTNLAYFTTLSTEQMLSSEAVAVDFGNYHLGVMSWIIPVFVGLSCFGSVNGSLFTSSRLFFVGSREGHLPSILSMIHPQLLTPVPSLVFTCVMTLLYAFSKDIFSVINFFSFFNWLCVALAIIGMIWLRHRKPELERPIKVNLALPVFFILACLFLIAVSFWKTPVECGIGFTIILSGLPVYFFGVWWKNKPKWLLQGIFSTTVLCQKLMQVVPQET
Sequence (P08195 102-630 partner): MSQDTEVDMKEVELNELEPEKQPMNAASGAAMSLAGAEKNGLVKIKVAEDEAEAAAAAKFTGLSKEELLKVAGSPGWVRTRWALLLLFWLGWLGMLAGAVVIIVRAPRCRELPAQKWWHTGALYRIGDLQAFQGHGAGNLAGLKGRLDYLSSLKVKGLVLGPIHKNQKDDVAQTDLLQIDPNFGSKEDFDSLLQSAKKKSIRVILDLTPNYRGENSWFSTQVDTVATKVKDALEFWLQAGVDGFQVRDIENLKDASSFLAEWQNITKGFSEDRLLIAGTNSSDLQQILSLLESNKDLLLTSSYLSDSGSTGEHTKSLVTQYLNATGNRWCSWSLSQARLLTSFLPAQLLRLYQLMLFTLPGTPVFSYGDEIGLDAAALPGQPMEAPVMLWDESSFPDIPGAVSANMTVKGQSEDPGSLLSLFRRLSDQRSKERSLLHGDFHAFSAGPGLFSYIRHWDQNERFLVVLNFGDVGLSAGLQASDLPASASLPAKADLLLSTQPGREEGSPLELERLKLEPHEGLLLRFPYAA
Measured Percent Inhibition of L-Dopa Distribution Volume of individual entries

Briefly, Percent Inhibition of L-Dopa Distribution Volume measured for "Oc1ccc2c(c1)OCO2" : 44%

Briefly, Percent Inhibition of L-Dopa Distribution Volume measured for "N[C@@H](Cc1ccc(O)cc1)C(=O)O" : 72%

Briefly, Percent Inhibition of L-Dopa Distribution Volume measured for "CC(C)C[C@H](N)C(=O)O" : 75%

Briefly, Percent Inhibition of L-Dopa Distribution Volume measured for NC1(C(=O)O)CC2CCC1C2 (stereo not shown) : 82%
